Measured Hepatotoxicity (severe hepatitis), listed per entry.
CONDITION: human

Examples from the recorded data:
CC(=O)CCCCn1c(=O)c2c(ncn2C)n(C)c1=O [PENTOXIFYLLINE] : 0
OC[C@H]1O[C@@H](n2cnc3c2NC=NC[C@H]3O)C[C@@H]1O [PENTOSTATIN] : 2
OCCN1CCN(CCCN2c3ccccc3Sc3ccc(C(F)(F)F)cc32)CC1 [FLUPHENAZINE] : 0
O=C1c2c(O)ccc(O)c2C(=O)c2c(NCCNCCO)ccc(NCCNCCO)c21 [MITOXANTRONE] : 2
CC(=O)Oc1cc(C(C)C)c(OCCN(C)C)cc1C [MOXISYLYTE] : 0

Okay, now this molecule:
[Q] Any idea what its Hepatotoxicity (severe hepatitis) is? The molecule is O=c1[nH]c(=O)n([C@@H]2O[C@H](CO)[C@@H](O)[C@@H]2F)cc1I [FIALURIDINE]
[A] 3

----------
Hepatotoxicity (choleostasis) overview
CONDITION: human

CC1CCN(CCCC(=O)c2ccc(F)cc2)CC1 : 0

[Q] Name the recorded Hepatotoxicity (choleostasis) for N=C(N)NCC1COc2ccccc2O1 (centres undefined) .
[A] 2

[Q] Another molecule: CCc1nc(N)nc(N)c1-c1ccc(Cl)cc1.COc1ncnc(NS(=O)(=O)c2ccc(N)cc2)c1OC
[A] 4

[Q] Also, CCN1CCN(C(=O)N[C@@H](C(=O)N[C@]2(OC)C(=O)N3C(C(=O)O)=C(CSc4nnnn4C)CS[C@@H]32)[C@H](C)O)C(=O)C1=O please.
[A] 0
